- Subject Of Test: STING (Homo sapiens, UniProt Q86WV6, G230A/H232R/R293Q/R71H)
- Sequence (Q86WV6 whole entry R71H/G230A/H232R/R293Q): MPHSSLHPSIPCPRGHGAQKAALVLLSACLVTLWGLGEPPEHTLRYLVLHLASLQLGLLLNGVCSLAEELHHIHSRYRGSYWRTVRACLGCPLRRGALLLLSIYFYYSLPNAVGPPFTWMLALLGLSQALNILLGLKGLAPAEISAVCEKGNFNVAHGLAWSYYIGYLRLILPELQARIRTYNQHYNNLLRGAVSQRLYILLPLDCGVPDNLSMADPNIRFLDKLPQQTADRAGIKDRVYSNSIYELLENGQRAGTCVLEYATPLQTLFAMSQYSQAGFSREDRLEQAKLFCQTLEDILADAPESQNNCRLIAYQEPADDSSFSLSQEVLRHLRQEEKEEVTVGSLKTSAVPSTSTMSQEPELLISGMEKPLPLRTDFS
- Assay Text: Reporter gene expression assay in THP1-Dual cells (IRF pathway Lucia luciferase, 2',3'-cGAMP stimulation)
- Experimental Parameters: 10 min preincubation, 5 μM 2',3'-cGAMP, 20 hr, IRF reporter QUANTI-Luc, read-out: THP-1 (HAQ) Activity
- Excerpt: Reporter Gene Expression Assay in THP-1 Cells THP1-Dual™ cells (Invivogen) were derived from the human THP-1 monocyte cell line by stable integration of two inducible reporter constructs. […] After 20 hr of stimulation the supernatant was removed and the IRF pathway reporter protein was readily measured in the cell culture supernatant using QUANTI-Luc™ (Invivogen), a luciferase detection reagent on a Spectramax i3X luminometer. […]
pIC50: −log10 of the molar value.
Property: pIC50; scope: individual compounds

Record request: pIC50 value, item O=C(Nc1ccc2c(c1)OCC(=O)N2Cc1ccccc1C(F)(F)F)Nc1ccc2cc[nH]c2c1 [Example 113]
5.00 to 6.00

Next compound: NC(=O)C1COc2cc(NC(=O)Nc3ccc4cc[nH]c4c3)ccc2N1Cc1ccccc1 (centres unmarked) [Example 188]
5.00 to 6.00

Next compound: O=C(Nc1ccc2c(c1)N(Cc1ccccc1)CCS2)Nc1c[nH]c2ccccc12 [Example 64]
5.00 to 6.00

Next compound: O=C(Nc1ccc2c(c1)N(Cc1noc3ccccc13)C(=O)CS2)Nc1ccc2cc[nH]c2c1 [Example 24]
5.00 to 6.00

Next compound: O=C(Nc1ccc2c(c1)OCC(=O)N2CC1CCCO1)Nc1ccc2cc[nH]c2c1 (centres unmarked) [Example 146]
5.00 to 6.00

Next compound: CC1(C)Oc2cc(NC(=O)Nc3ccc4cc[nH]c4c3)ccc2N(Cc2ccccc2)C1=O [Example 90]
5.00 to 6.00

Next compound: O=C(Nc1ccc2c(c1)OCC(=O)N2Cc1cnc[nH]1)Nc1ccc2cc[nH]c2c1 [Example 162]
< 5.00

Next compound: O=C(Nc1ccc2c(c1)OCCN2c1ncco1)Nc1ccc2cc[nH]c2c1 [Example 185]
≥ 6.00

----------
Property: IC50; scope: individual compounds
- Subject Of Test: STING (Homo sapiens, UniProt Q86WV6, G230A/H232R/R293Q/R71H)
- Assay Text: Reporter gene expression assay in THP1-Dual cells (IRF pathway Lucia luciferase, 2',3'-cGAMP stimulation)
- Experimental Parameters: 10 min preincubation, 5 μM 2',3'-cGAMP, 20 hr, IRF reporter QUANTI-Luc, read-out: THP-1 (HAQ) Activity

Compound | Endpoint Result
O=C(Nc1ccccc1)Nc1ccc2c(c1)N(Cc1ccccc1)C(=O)CS2 | 1000 to 10000 nM
O=C(Nc1ccc2c(c1)OCC(=O)N2Cc1cc(Cl)cc(C(F)(F)F)c1)Nc1ccc2cc[nH]c2c1 | ≤ 1000 nM
Cc1cc2ccc(NC(=O)Nc3ccc4c(c3)OCC(=O)N4Cc3ccccc3)cc2[nH]1 | 1000 to 10000 nM
O=C(Nc1ccc2c(c1)N(Cc1ccccc1)CCS2)Nc1ccc2cc[nH]c2c1 | ≤ 1000 nM
O=C(Nc1ccc2c(c1)N(Cc1ccc(OC(F)(F)F)cc1F)CCO2)Nc1ccc2cc[nH]c2c1 | ≤ 1000 nM

// next entry
Provide the documented IC50 with STING (Homo sapiens, UniProt Q86WV6, G230A/H232R/R293Q/R71H) as the system for O=C(Nc1ccc2c(c1)N(CC1CCCC1)CCS2)Nc1ccc2cc[nH]c2c1
≤ 1000 nM

These entries and their values trace back to patent US20230124361A1.
